# System: DU-145
# assay method text: NCI tumour cell line growth inhibition, 48 h
Activity calls are given as the source filed them. Cut-off read from the data, not from the text of the source: active = GI50 up to about 1.1 µM and inactive = higher.
Recorded GI50 by entry

CC(=O)N/C=C/c1cc(O)ccc1O: 41.3 µM (inactive)
CC(C)Oc1c(O)c2c3c(oc(=O)n3C=CC2c2ccccc2)c1OC(C)C (centres undefined): 34 µM (inactive)
CCCCCCCCCCCCCCCCCCNc1ccn(C2OC(COP(=O)(O)OCCCCCCCCCCCCCCCC)C(O)C2O)c(=O)n1 (centres undefined): > 100 µM (inactive)
COC1CCC(=O)N1CN(C(C)=O)c1ccc(C)cc1 (centres undefined): > 100 µM (inactive)

Tell us which GI50 value is on record for CC1C(=O)O[B-]2(c3ccccc3)Oc3ccccc3C=[N+]12 (centres undefined)
> 100 µM (inactive)

Identify GI50 associated with the molecule "CC(=O)O[C@H]1CC[C@@]2(C)C(=CC[C@H]3[C@@H]4C/C(=C\c5ccncc5)[C@H](OC(C)=O)[C@@]4(C)CC[C@@H]32)C1"
15.4 µM (inactive)

Please give measured GI50 of the following entry: "CCn1cc(C(=O)O)c(=O)c2cc(F)c(N3CCN(CN4C(=O)/C(=N\NC(=O)c5ccncc5)c5cc(Cl)ccc54)CC3)cc21"
24 µM (inactive)

Note down GI50 recorded for "C=C1C/C(=C/C)C(=O)O[C@@H]2CCN3CC=C(COC(=O)[C@]1(C)O)[C@H]23"
> 100 µM (inactive)

Give a short answer stating reported GI50 for "CCOc1ccc(C(=O)/C=C2/Nc3ccccc3N/C2=C/C(=O)c2ccc(OCC)cc2)cc1" .
> 100 µM (inactive)
